Where do these numbers come from? They come from the supplement of paper PMC10201428.

system: VchCAST RNA-guided transposition machinery (E. coli BL21(DE3) host, lacZ target); assay: relative integration efficiency (T-RL orientation) vs wild-type transposon end (log2 (normalized fold change)); transposon end mutated: right end (5 bp flank + 75 bp right end); higher = more efficient transposition
reportedMetric: relative integration efficiency (log2)

• ACATTTGTTGATACAACCATAAAAGGATCATTACACCCATAAATTGATAATTATCACACCCAATTTAACTATAACGCTCTGATCATAGTCAGACCAACATTGCTACGACCCGTATTCGCACCGACAC = -2.03
• ACATTTGTTGATACAACCATAAAATGATAATTACACCCATAAATTGATATTGCTCACAACCATAAAATGATAATTACTCTGATCATAGTCAGACCAACATTGCTACGACCCGTATTCGCACCGACAC = -0.532
• ACATTTGTTGATACAACCATAAAATGATAATTACACCCATAAATTGATAATTATCACACCGTTAAATTGATATTGCCTCTGATCATAGTCAGACCAACATTGCTACGACCCGTATTCGCACCGACAC = -0.625
• ACATTTGTTGATACAACCATAAAATGATAATTACACCCATAAATTGATAATTATCAACACCCATAAATTGATATTGCCTCTGATCATAGTCAGACCAACATTGCTACGACCCGTATTCGCACCGACA = -0.35
• ACATTTGTCGATACAACCATAAAATGATAATTCACCCATAAATTGATAATTATCACACCCCAATTTAACTATAACGCTCTGATCATAGTCAGACCAACATTGCTACGACCCGTATTCGCACCGACAC = -2.26
• ACATTTGTTGATACAACCATAAAATGATAATTACACCCATAAATTGATAATTATCACACCCATAAATTGATATTGCCAGTGATCATAGTCAGACCAACATTGCTACGACCCGTATTCGCACCGACAC = -0.39
• ACATTTGTTGATACAACCATAAAATGATAATTAGAAACCATAATTGATAATTATCACACCCATAAATTGATATTGCCTCTGATCATAGTCAGACCAACATTGCTACGACCCGTATTCGCACCGACAC = -3.59
• ACATTTGTTGATACAACCAATAAATGATAATTACACCCATAAATTGATAATTGTGACACCGAATTTAACTATAACGCTCTGATCATAGTCAGACCAACATTGCTACGACCCGTATTCGCACCGACAC = -1.29
• ACATTTGTTGATACAACCATAAAATGATAATTACCCCCATCAATTGATAATTATCACACCCCATTTAACTATAACGCTCTGATCATAGTCAGACCAACATTGCTACGACCCGTATTCGCACCGACAC = -2.27
• ACATTTGTTGATACAACCATAAAATGATAATTACAACCATAAAGTGATATTTATCACACCCATAAATTGATAATTACTCTGATCATAGTCAGACCAACATTGCTACGACCCGTATTCGCACCGACAC = 0.00575

###

tested on: VchCAST RNA-guided transposition machinery (E. coli BL21(DE3) host, lacZ target); test: relative integration efficiency (T-LR orientation) vs wild-type transposon end (log2 (normalized fold change)); transposon end mutated: left end; higher = more efficient transposition
Assign class by relative integration efficiency (log2): not lower than -3 means y; lower than -3 means n.

* AATGTTGTTGATGCAACCATAAAGTGATATTTAATAATTATTTATAATCAGCAACTTAACCACAAAACAACCATATATTGCGCGAGACACCCCACCAACGCCTGGTCGCGGGGGTGTCCGATCTGATTTCAGCAAAACTACTGCAGTAAGAA | y
* AATGTTGTTGATGCAACCATAAAGTGATATTTAATAATTATTTACAACCATATATTGATATCTCACAAAACAACCATAAGTTGATATTTTTGTGAATCGAGTATTTCAGCAAAACTACTGCAGTAAGAAAGTTACTTCGTGGTATGGGAGGA | y
* AATGTTGTTGATGCAACCATAAAGTGATATTTAATAATTATTTATAATCAGCCAACCATATATTGATATCTCACAAAACAACCATAAGTTGATATTTTTGTGAATCGAGTATTTCAGCAAAACTACTGCAGTAAGAAAGTTACTTCGTGGTA | n
* AATGTTGTTGATGCAACCATAAAGTGATATTTAATAATTATTTATAATCAGCAACTTAACCACAAAACAACCATATATTGATATCTACACCCCACCAACGCCTGGTCGCGGGGGTGTCCGATCTGATTTCAGCAAAACTACTGCAGTAAGAA | y
* AATGTTGTTGATGCAACCATAAAGTGATATTGCCGCCGGCGGGCGCCGACTACCAGGCCAACACCCCACCAACGCGCGGTCGCGAGACACCCCACCAACGCCTGGTCGCGGGGGTGTCCGATCTGATTTCAGCAAAACTACTGCAGTAAGAA | n
* AATGTTGTTGATGTGTTGCAACCATAAAGTGATATTTAATAATTATTTATAATCAGCAACTTAACCACAAAACAACCATATATTGATATCTCACAAAACAACCATAAGTTGATATTTTTGTGAATCGAGTATTTCAGCAAAACTACTGCAGT | n
* TTTTGTGTTGATGCAACCATAAAGTGATAACAACGAATCAATTAAAATCATAGGCTTAATCGAAAAACAACCATATCTTGATATCGCATAAAACAACCATAAGTTGATATTTTGGTGAAAAGGATATTCCAACCTTCATAGTTTAGTAAGAA | y
* AATGTTGTTGATGCAACCATAAAGTGATATTTAATAATTATTTATAATCAGCAACTTAACCACAAAACAACCATATATTTCGCGAGACACCCCACCAACGCCTGGTCGCGGGGGTGTCCGATCTGATTTCAGCAAAACTACTGCAGTAAGAA | n
* AATGTTGTTGATGCAACCATAAAGTGATATTTAATAATTATTTATAATCAGCCCAGGCCAACACCCCACCAACGCGCGGTCGCGAGACACCCCACCAACGCCTGGTCGCGGGGGTGTCCGATCTGATTTCAGCAAAACTACTGCAGTAAGAA | n

###

relative integration efficiency (log2) values by entry
tested on: VchCAST RNA-guided transposition machinery (E. coli BL21(DE3) host, lacZ target); experiment: relative integration efficiency (T-RL orientation) vs wild-type transposon end (log2 (normalized fold change)); transposon end mutated: left end; higher = more efficient transposition
reportedMetric: relative integration efficiency (log2)

* AATGTTGTTGATGGTTGGTATTTCACTATAAATATAATTATTTATAATCAGCAACTTAACCACAAAAGTTGGTATATAACTATAGAGACAAAAGTTGGTATTCAACTATAAAATGTGAATCGAGTATTTCAGCAAAACTACTGCAGTAAGAA | -8.52
* AATGTTGTTGATGCAACCATAAAGTGATATTTAATAATTATTTATAATCAGCACAACCATATATTGATATCTCACTTAACCACAAAAACAAAACAACCATAAGTTGATATTTTTGTGAATCGAGTATTTCAGCAAAACTACTGCAGTAAGAA | -6.85
* AATGTTGTTGATGCAACCATAAAGTGATATTTAATAATGGAATTGTGAGCGGATAACAATTACAAAACAACCATATATTGATATCTCACAAAACAACCATAAGTTGATATTTTTGTGAATCGAGTATTTCAGCAAAACTACTGCAGTAAGAA | -4.89
* AATGTTGTTGATGCAACCATAAAGTGATATTTAATAATTATTTATAATCAGCAACTTAACCACAAAATGTGAATCGAGTATTTCAGCAAAACTACTGCAACCATATATTGATATCTCACAAAACAACCATAAGTTGATATTTTCAGTAAGAA | -6.39

###

tested on: VchCAST RNA-guided transposition machinery (E. coli BL21(DE3) host, lacZ target); test: relative integration efficiency (T-LR orientation) vs wild-type transposon end (log2 (normalized fold change)); transposon end mutated: left end; higher = more efficient transposition
reportedMetric: relative integration efficiency (log2)

* AATGTTGTTGATGCAACCATAAAGTGATATTTAATAAGGCGGGCGCCGACTACCAGGCCAACACCCCACCAACGCGCGGTCGCGAGACACCCCACCAACGCCTGGTCGCGGGGGTGTCCGATCTGATTTCAGCAAAACTACTGCAGTAAGAA | -3.73
* AATGTTGTTGATGCAACCATAAAGTGATATTTAATAATTATTTATAATCAGCAACTTAACCACAAAACAACCATATAGGTCGCGAGACACCCCACCAACGCCTGGTCGCGGGGGTGTCCGATCTGATTTCAGCAAAACTACTGCAGTAAGAA | -3.44
* AATGTTGTTGATGCAACCATAAAGTGATATTTAATAACTTCGTATAAAGTATCCTATACGAAGTTATCAACCATATATTGATATCTCACAAAACAACCATAAGTTGATATTTTTGTGAATCGAGTATTTCAGCAAAACTACTGCAGTAAGAA | -2.99
* AATGTTGTTGATGCAACCATAAAGTGATATTTAACAACCATATATTGATATCTCACAAAACAACCATAAGTTGATATTTTTGTGAATCGAGTATTTCAGCAAAACTACTGCAGTAAGAAAGTTACTTCGTGGTATGGGAGGATCAAGGAGCC | -0.0605
* AATGTTGTTGATGCAACCATAAAGTGATATTTGCTAGCATTGTACCTAGGACTGAGCTAGCCATAAACAACCATATATTGATATCTCACAAAACAACCATAAGTTGATATTTTTGTGAATCGAGTATTTCAGCAAAACTACTGCAGTAAGAA | -4.41
* AATGTTGTTGATGCAACCATAAAGTGATATTTAATAATTATTTATAATCAGCAACTTAACCACAAAACAACCATATATTGATATCTCACAAAACAACCATAAGTTTCGCGGGGGTGTCCGATCTGATTTCAGCAAAACTACTGCAGTAAGAA | -2.11
* AATGTTGTTGATGCAACCATAAAGTGATATTTAATAATTATTCAACCATATATTGATATCTCACAAAACAACCATAAGTTGATATTTTTGTGAATCGAGTATTTCAGCAAAACTACTGCAGTAAGAAAGTTACTTCGTGGTATGGGAGGATC | -5.27
* AATGTTGTTGATGCAACCATAAAGTGATCGGGCCGCCGGCGGGCGCCGACTACCAGGCCAACACCCCACCAACGCGCGGTCGCGAGACACCCCACCAACGCCTGGTCGCGGGGGTGTCCGATCTGATTTCAGCAAAACTACTGCAGTAAGAA | -7.44
